Source of measurements: ChEMBL document CHEMBL1122021

- study-target: Angiotensin-converting enzyme (Oryctolagus cuniculus, UniProt P12822)
- Sequence (P12822 whole entry): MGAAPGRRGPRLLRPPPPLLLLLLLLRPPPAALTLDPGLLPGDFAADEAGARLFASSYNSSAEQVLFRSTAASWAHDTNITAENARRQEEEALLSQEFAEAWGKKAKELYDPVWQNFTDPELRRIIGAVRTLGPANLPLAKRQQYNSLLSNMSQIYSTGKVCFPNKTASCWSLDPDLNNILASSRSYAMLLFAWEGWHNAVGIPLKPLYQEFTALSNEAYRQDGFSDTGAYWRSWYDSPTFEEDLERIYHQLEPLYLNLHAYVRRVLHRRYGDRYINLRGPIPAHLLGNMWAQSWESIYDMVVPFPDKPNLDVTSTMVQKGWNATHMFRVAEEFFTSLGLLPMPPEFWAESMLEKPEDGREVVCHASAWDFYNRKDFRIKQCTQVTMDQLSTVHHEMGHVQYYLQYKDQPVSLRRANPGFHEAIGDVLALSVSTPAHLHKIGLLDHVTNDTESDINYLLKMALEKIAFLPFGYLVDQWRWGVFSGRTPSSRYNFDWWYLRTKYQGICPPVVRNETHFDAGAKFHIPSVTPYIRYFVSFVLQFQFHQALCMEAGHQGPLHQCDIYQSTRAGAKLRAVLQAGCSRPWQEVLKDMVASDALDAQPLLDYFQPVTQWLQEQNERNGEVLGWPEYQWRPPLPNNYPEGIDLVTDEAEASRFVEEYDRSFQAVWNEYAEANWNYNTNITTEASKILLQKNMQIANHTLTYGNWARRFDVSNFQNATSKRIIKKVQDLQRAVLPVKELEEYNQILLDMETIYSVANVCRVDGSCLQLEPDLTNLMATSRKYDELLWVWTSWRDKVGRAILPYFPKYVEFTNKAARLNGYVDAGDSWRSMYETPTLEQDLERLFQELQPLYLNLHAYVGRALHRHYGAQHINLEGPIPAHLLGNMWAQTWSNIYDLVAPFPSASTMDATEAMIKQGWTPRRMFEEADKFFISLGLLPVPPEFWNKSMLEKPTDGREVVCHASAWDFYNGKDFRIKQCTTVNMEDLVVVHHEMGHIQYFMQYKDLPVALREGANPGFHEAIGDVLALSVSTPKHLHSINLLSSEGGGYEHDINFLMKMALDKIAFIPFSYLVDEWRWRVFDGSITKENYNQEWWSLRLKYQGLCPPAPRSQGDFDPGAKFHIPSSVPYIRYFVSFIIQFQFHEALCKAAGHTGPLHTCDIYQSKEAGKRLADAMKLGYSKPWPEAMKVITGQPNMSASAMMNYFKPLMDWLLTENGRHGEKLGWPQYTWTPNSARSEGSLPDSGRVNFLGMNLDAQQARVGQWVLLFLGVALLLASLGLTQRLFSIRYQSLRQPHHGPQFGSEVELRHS
- assay-text: In vitro inhibitory activity against Angiotensin I converting enzyme in rabbit lung, using hippuryl-histidyl-leucine as substrate
- test-parameters: read-out: I50
pIC50: −log10 of the molar value.
Classify as follows. Reported pIC50 greater than or equal to 5: Fulfilled. Reported pIC50 below: Not fulfilled.

Examples from the recorded data:
>  <molecule-smiles>
O=C(O)[C@@H]1CCN1C(=O)CCS

>  <assigned-class>
Fulfilled

$$$$
>  <molecule-smiles>
O=C(O)[C@@H]1CCCN1C(=O)CCS

>  <assigned-class>
Fulfilled

$$$$
>  <molecule-smiles>
C[C@H](CS)C(=O)[C@@H]1CCCC[C@H]1C(=O)O

>  <assigned-class>
Fulfilled

$$$$
>  <molecule-smiles>
C[C@@H](CS)C(=O)[C@@H]1CCCC[C@H]1C(=O)O

>  <assigned-class>
Fulfilled

$$$$
>  <molecule-smiles>
O=C(CCS)O[C@@H](Cc1ccccc1)C(=O)O

>  <assigned-class>
Fulfilled

$$$$

Hello, I need to know if O=C(O)[C@@H]1CCCN1CCCS has measured pIC50 not below 5. Thanks! Not fulfilled

Kindly determine if pIC50 recorded for CN(CC(=O)O)C(=O)CCS is above or exactly 5. Fulfilled

Determine whether this compound has pIC50 no lower than 5: O=C(O)C/C=C/CCS Not fulfilled

----------
- study-target: UniProtKB P12822
- assay-text: In vitro inhibitory activity against Angiotensin I converting enzyme in rabbit lung, using hippuryl-histidyl-leucine as substrate
- test-parameters: read-out: I50
parameter: pIC50
Remember the convention: pIC50 equals -log10 of concentration in molar.

>  <molecule-smiles>
O=C(O)CNC(=O)CCS

>  <pIC50>
5.55

$$$$
>  <molecule-smiles>
O=C(O)[C@@H]1CCCC[C@H]1C(=O)CCS

>  <pIC50>
5.77

$$$$

pIC50 for O=C(O)CC(=O)NCCS ? 3.24
